Target or test system: MMP2 (Homo sapiens, UniProt P08253)
Sequence (P08253 110-660): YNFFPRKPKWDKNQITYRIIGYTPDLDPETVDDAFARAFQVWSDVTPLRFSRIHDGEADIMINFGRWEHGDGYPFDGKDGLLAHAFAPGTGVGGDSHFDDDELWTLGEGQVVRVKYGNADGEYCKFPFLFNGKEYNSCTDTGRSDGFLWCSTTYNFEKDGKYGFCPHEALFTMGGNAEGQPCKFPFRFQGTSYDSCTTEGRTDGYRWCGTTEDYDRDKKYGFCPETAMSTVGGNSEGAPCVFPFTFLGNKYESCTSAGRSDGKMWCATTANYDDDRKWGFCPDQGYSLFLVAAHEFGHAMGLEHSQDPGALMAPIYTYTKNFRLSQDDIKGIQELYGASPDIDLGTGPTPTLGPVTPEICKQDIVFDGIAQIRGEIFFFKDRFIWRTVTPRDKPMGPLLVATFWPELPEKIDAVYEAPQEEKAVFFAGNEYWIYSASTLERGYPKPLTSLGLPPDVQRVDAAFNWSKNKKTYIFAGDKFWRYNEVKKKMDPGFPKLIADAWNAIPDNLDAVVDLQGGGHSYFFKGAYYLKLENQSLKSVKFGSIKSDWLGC
Protocol summary: Enzymolysis assay of polypeptides by MMP2 (RP-HPLC)
Assay type: biochemical
Measurement conditions: test polypeptide 100 µmol, activated MMP2, 37°C, 4 h
Square brackets hold non-standard residues; d marks the D form. Peptide text beside a SMILES is read from it. Cit = NC(=O)NCCC[C@H](N)C(=O)O
Assay metric: Enzymolysis efficiency (%)
Give the value in % but do not write % after it.

Enzymolysis efficiency (%) reported for this compound CC(=O)N1CCC[C@H]1C(=O)N[C@@H](CCCNC(N)=O)C(=O)N1CCC[C@H]1C(=O)N[C@@H](CC(C)C)C(=O)N[C@H](C(=O)N[C@@H](CCCNC(N)=O)C(N)=O)C(C)C [Compound 2-P6] (Ac-P[Cit]PLV[Cit]-NH2) : 36.21

Please fill in: Enzymolysis efficiency (%) reported for CC(=O)NCC(=O)N1CCC[C@H]1C(=O)N[C@@H](CCCNC(N)=O)C(=O)NCC(=O)N[C@@H](CC(C)C)C(=O)N[C@H](C(=O)N[C@@H](CCCNC(N)=O)C(N)=O)C(C)C [Compound 2-P10] (Ac-GP[Cit]GLV[Cit]-NH2) = 71.24

Just so you know, measured Enzymolysis efficiency (%) for CC(=O)NCC(=O)N1CCC[C@H]1C(=O)N[C@@H](CCC(N)=O)C(=O)NCC(=O)N[C@@H](CC(C)C)C(=O)N[C@H](C(=O)N[C@@H](CCCNC(N)=O)C(N)=O)C(C)C [Compound 1-P8] (Ac-GPQGLV[Cit]-NH2) came out at 54.71

The measurements presented in this section are drawn from patent EP4796557A1.
